- System: SF-295
- Assay summary: Growth inhibition of human SF295 cells after 48 hrs by SRB assay
- Format: functional
- Run parameters: SF-295, 48 h
Reported property: GI50 (µM)
Could you give me the number in µM? Just the number is fine.

IN: # assay system SF-295: give GI50 of COc1cc(C2CC(c3ccc(N(C)C)cc3)=NN2C(C)=O)cc(OC)c1OC (centres undefined)
OUT: 0.158

IN: # assay system SF-295: give GI50 of COc1ccc(/C=C\c2cc(OC)c(OC)c(OC)c2)cc1O
OUT: 0.0631

IN: # assay system SF-295: give GI50 of COc1cc(C2=NNC(c3ccc(N(C)C)cc3)C2)cc(OC)c1OC (centres undefined)
OUT: 0.251

IN: # assay system SF-295: give GI50 of CCN(CC)c1ccc(C2CC(c3cc(OC)c(OC)c(OC)c3)=NN2)cc1 (centres undefined)
OUT: 0.1

###

- Tested on: NCI-H460
- Assay summary: Cytotoxicity against human NCI-H460 cells after 72 hrs by SRB assay
- Type: functional, cell-based
- Run parameters: NCI-H460, 72 h
For each record, write down the corresponding IC50.
Could you give me the number in µM? Just the number is fine.

IN: Name the recorded IC50 of the compound listed here: COc1cc(C2CC(c3cccc(Br)c3)=NN2C(C)=O)cc(OC)c1OC (stereo not drawn)
OUT: 0.35

IN: Name the recorded IC50 of the compound listed here: COc1cc(C2CC(c3cccc(N)c3)=NN2C(C)=O)cc(OC)c1OC (stereo not drawn)
OUT: 0.74

IN: Name the recorded IC50 of the compound listed here: COc1cc(C2CC(c3ccc(C)cc3)=NN2C(=O)CO)cc(OC)c1OC (stereo not drawn)
OUT: 0.69

IN: Name the recorded IC50 of the compound listed here: COc1cc(C2CC(c3ccc(N(C)C)cc3)=NN2C(=O)CO)cc(OC)c1OC (stereo not drawn)
OUT: 1.3

IN: Name the recorded IC50 of the compound listed here: COc1cc(C2=NN(C(=O)CO)C(c3cc(OC)c(OC)c(OC)c3)C2)ccc1O (stereo not drawn)
OUT: 1.85

IN: Name the recorded IC50 of the compound listed here: CCN(CC)c1ccc(C2=NN(C(=O)COC(C)=O)C(c3cc(OC)c(OC)c(OC)c3)C2)cc1 (stereo not drawn)
OUT: 5

IN: Name the recorded IC50 of the compound listed here: COc1cccc(C2CC(c3cc(OC)c(OC)c(OC)c3)=NN2)c1 (stereo not drawn)
OUT: 11.6

###

For each record, write down the corresponding TGI.
- Test system: RXF 393
- Assay summary: Growth inhibition of human RXF393 cells after 48 hrs by SRB assay
- Format: functional
- Run parameters: RXF 393, 48 h, read-out: pTGI (converted)
Could you give me the number in µM? Just the number is fine.

IN: Name the recorded TGI of the compound listed here: COc1ccc(/C=C\c2cc(OC)c(OC)c(OC)c2)cc1O
OUT: 79.4

IN: Name the recorded TGI of the compound listed here: COc1cc(C2CC(c3cccc(Br)c3)=NN2C(C)=O)cc(OC)c1OC (configuration not stated)
OUT: 1

IN: Name the recorded TGI of the compound listed here: COc1cc(C2CC(c3ccc(N(C)C)cc3)=NN2C(C)=O)cc(OC)c1OC (configuration not stated)
OUT: 5.01

IN: Name the recorded TGI of the compound listed here: CCN(CC)c1ccc(C2=NN(C(C)=O)C(c3cc(OC)c(OC)c(OC)c3)C2)cc1 (configuration not stated)
OUT: 2.51

IN: Name the recorded TGI of the compound listed here: COc1cc(C2=NNC(c3ccc(N(C)C)cc3)C2)cc(OC)c1OC (configuration not stated)
OUT: 5.01
